# System: SN12C
# assay protocol: Growth inhibition in SN12C cells
# Assay type: functional
# measurement context: Homo sapiens
parameter measured: log10(GI50) (log10 of the value in nM)
Heads up, the numbers here are log10 of GI50 in nM units.

Examples with answers:
>>> value_measured("COc1ccc(-n2cnnc2-c2cc(OC)c(OC)c(OC)c2)cc1F")
3.67
>>> value_measured("COc1ccc(-n2cnnc2-c2cc(OC)c(OC)c(OC)c2)cc1")
3.61
>>> value_measured("COc1cc(-c2nncn2-c2ccc3c(ccn3C)c2)cc(OC)c1OC")
1.80
>>> value_measured("COc1ccc(-n2cnnc2-c2cc(OC)c(OC)c(OC)c2)cc1O")
2.78

Let me know recorded log10(GI50) for COc1cc(-c2nncn2-c2ccc(N(C)C)cc2)cc(OC)c1OC , thanks. 2.86

###

// GI50 lookup, one value per entry
# Tested on: RXF 393
# assay protocol: Growth inhibition in RXF393 cells
# Type: functional
# measurement context: Homo sapiens
Numbers only; they are read as µM.

>>> value_measured("COc1ccc(-n2cnnc2-c2cc(OC)c(OC)c(OC)c2)cc1")
1.58

Let me know recorded GI50 for COc1ccc(-n2cnnc2-c2cc(OC)c(OC)c(OC)c2)cc1F , thanks. 1.7

Let me know recorded GI50 for COc1cc(-c2nncn2-c2ccc(N(C)C)cc2)cc(OC)c1OC , thanks. 1.62

Let me know recorded GI50 for COc1ccc(-n2cnnc2-c2cc(OC)c(OC)c(OC)c2)cc1O , thanks. 0.309

###

// pIC50 lookup, one value per entry
# subject of test: Tubulin
# assay protocol: Inhibition of tubulin polymerization
Bear in mind: pIC50 is minus log10 of a mol/L concentration; give just that figure.

Let me know recorded pIC50 for COc1cc(-n2cnnc2-c2ccc3c(ccn3C)c2)cc(OC)c1OC , thanks. 5.25

Let me know recorded pIC50 for COc1cc(-c2nncn2-c2ccc3c(ccn3C)c2)cc(OC)c1OC , thanks. 5.52

Let me know recorded pIC50 for COc1ccc(-n2cnnc2-c2cc(OC)c(OC)c(OC)c2)cc1O , thanks. 5.22

Let me know recorded pIC50 for COc1cc(-c2nncn2-c2ccc(N(C)C)cc2)cc(OC)c1OC , thanks. 5.39

###

# Test system: SF-539
# assay protocol: Growth inhibition in SF539 cells
# Format: functional
# measurement context: Homo sapiens
parameter measured: GI50 (nM)
Numbers only; they are read as nM.

>>> value_measured("COc1ccc(-n2cnnc2-c2cc(OC)c(OC)c(OC)c2)cc1F")
3890
>>> value_measured("COc1ccc(-n2cnnc2-c2cc(OC)c(OC)c(OC)c2)cc1O")
372
>>> value_measured("COc1cc(-c2nncn2-c2ccc(N(C)C)cc2)cc(OC)c1OC")
324

--- query ---
Let me know recorded GI50 for COc1ccc(-n2cnnc2-c2cc(OC)c(OC)c(OC)c2)cc1 , thanks. 4070

###

# System: OVCAR-3
# assay protocol: Growth inhibition in OVCAR-3 cells
# Format: functional
# measurement context: Homo sapiens
// GI50 lookup, one value per entry
Numbers only; they are read as nM.

Examples with answers:
>>> value_measured("COc1ccc(-n2cnnc2-c2cc(OC)c(OC)c(OC)c2)cc1F")
2090
>>> value_measured("COc1ccc(-n2cnnc2-c2cc(OC)c(OC)c(OC)c2)cc1O")
195
>>> value_measured("COc1ccc(-n2cnnc2-c2cc(OC)c(OC)c(OC)c2)cc1")
1740

--- query ---
Let me know recorded GI50 for COc1cc(-c2nncn2-c2ccc(N(C)C)cc2)cc(OC)c1OC , thanks. 34.7

###

# Tested on: PC-3
# assay protocol: Growth inhibition in PC3 cells
# Format: functional
# measurement context: Homo sapiens
// log10 of GI50 lookup, one value per entry
Heads up, the numbers here are log10 of GI50 in nM units.

Let me know recorded log10 of GI50 for COc1cc(-c2nncn2-c2ccc(N(C)C)cc2)cc(OC)c1OC , thanks. 1.45

###

# Tested on: SK-MEL-5
# assay protocol: Growth inhibition in SK-MEL-5 cells
# Assay type: functional
# measurement context: Homo sapiens
// GI50 lookup, one value per entry
Numbers only; they are read as nM.

Examples with answers:
>>> value_measured("COc1ccc(-n2cnnc2-c2cc(OC)c(OC)c(OC)c2)cc1O")
288
>>> value_measured("COc1cc(-c2nncn2-c2ccc(N(C)C)cc2)cc(OC)c1OC")
69.2
>>> value_measured("COc1ccc(-n2cnnc2-c2cc(OC)c(OC)c(OC)c2)cc1")
2400
>>> value_measured("COc1cc(-c2nncn2-c2ccc3c(ccn3C)c2)cc(OC)c1OC")
14.1

--- query ---
Let me know recorded GI50 for COc1ccc(-n2cnnc2-c2cc(OC)c(OC)c(OC)c2)cc1F , thanks. 2570

###

# assay protocol: Cytotoxicity against P-glycoprotein-overexpressing KB-V1 cell line
# Format: cell-based
# measurement context: Homo sapiens
parameter measured: pIC50
Bear in mind: pIC50 is minus log10 of a mol/L concentration; give just that figure.

Examples with answers:
>>> value_measured("COc1ccc(-n2cnnc2-c2cc(OC)c(OC)c(OC)c2)cc1F")
5.83
>>> value_measured("COc1ccc(/C=C\\c2cc(OC)c(OC)c(OC)c2)cc1O")
9.19
>>> value_measured("COc1cc(-c2nncn2-c2ccc3c(ccn3C)c2)cc(OC)c1OC")
7.68
>>> value_measured("COc1cc(-c2nncn2-c2ccc(N(C)C)cc2)cc(OC)c1OC")
6.49
>>> value_measured("COc1cc2c(c(OC)c1OC)-c1ccc(OC)c(=O)cc1[C@@H](NC(C)=O)CC2")
6.21

Let me know recorded pIC50 for COc1ccc(-n2cnnc2-c2cc(OC)c(OC)c(OC)c2)cc1O , thanks. 6.26

Let me know recorded pIC50 for COc1cc(-n2cnnc2-c2ccc3c(ccn3C)c2)cc(OC)c1OC , thanks. 7.49

Let me know recorded pIC50 for COc1ccc(-n2cnnc2-c2cc(OC)c(OC)c(OC)c2)cc1 , thanks. 6.04

###

# Test system: UO-31
# assay protocol: Growth inhibition in UO31 cells
# Type: functional
# measurement context: Homo sapiens
parameter measured: GI50 (nM)
Numbers only; they are read as nM.

Examples with answers:
>>> value_measured("COc1ccc(-n2cnnc2-c2cc(OC)c(OC)c(OC)c2)cc1O")
501
>>> value_measured("COc1ccc(-n2cnnc2-c2cc(OC)c(OC)c(OC)c2)cc1F")
17800
>>> value_measured("COc1cc(-c2nncn2-c2ccc3c(ccn3C)c2)cc(OC)c1OC")
32.4

--- query ---
Let me know recorded GI50 for COc1cc(-c2nncn2-c2ccc(N(C)C)cc2)cc(OC)c1OC , thanks. 955

###

// log10 of GI50 lookup, one value per entry
# Tested on: COLO 205
# assay protocol: Growth inhibition in COLO205 cells
# Type: functional
# measurement context: Homo sapiens
Heads up, the numbers here are log10 of GI50 in nM units.

Let me know recorded log10 of GI50 for COc1ccc(-n2cnnc2-c2cc(OC)c(OC)c(OC)c2)cc1 , thanks. 3.54

Let me know recorded log10 of GI50 for COc1cc(-c2nncn2-c2ccc(N(C)C)cc2)cc(OC)c1OC , thanks. 1.94

###

# Tested on: CAKI-1
# assay protocol: Growth inhibition in CAK1-1 cells
# Assay type: functional
# measurement context: Homo sapiens
// GI50 lookup, one value per entry
Numbers only; they are read as nM.

>>> value_measured("COc1ccc(-n2cnnc2-c2cc(OC)c(OC)c(OC)c2)cc1")
2570
>>> value_measured("COc1ccc(-n2cnnc2-c2cc(OC)c(OC)c(OC)c2)cc1F")
2950
>>> value_measured("COc1cc(-c2nncn2-c2ccc(N(C)C)cc2)cc(OC)c1OC")
135

With CAKI-1 as the test system, provide measured GI50 for this molecule: COc1ccc(-n2cnnc2-c2cc(OC)c(OC)c(OC)c2)cc1O 708

###

# Tested on: SNB-19
# assay protocol: Growth inhibition in SNB19 cells
# Assay type: functional
# measurement context: Homo sapiens
// log10 GI50 lookup, one value per entry
Heads up, the numbers here are log10 of GI50 in nM units.

Examples with answers:
>>> value_measured("COc1ccc(-n2cnnc2-c2cc(OC)c(OC)c(OC)c2)cc1O")
2.61
>>> value_measured("COc1cc(-c2nncn2-c2ccc(N(C)C)cc2)cc(OC)c1OC")
2.31
>>> value_measured("COc1cc(-c2nncn2-c2ccc3c(ccn3C)c2)cc(OC)c1OC")
1.65
>>> value_measured("COc1ccc(-n2cnnc2-c2cc(OC)c(OC)c(OC)c2)cc1F")
3.80

--- query ---
Let me know recorded log10 GI50 for COc1ccc(-n2cnnc2-c2cc(OC)c(OC)c(OC)c2)cc1 , thanks. 3.72

The measurements presented in this section are drawn from ChEMBL document CHEMBL1141374.
